- experimental.details: yeast display, Sf9 membrane polyspecificity reagent, FACS + sequencing; frameworks hold sequencing errors
measured.metric: polyreactivity (PSR sort gate)

- QVQLVESGGGLVQAGGSLRLSCAASGRNFSFNTMVWYIQAPRKERELVAAITSSSARTYYADSVKGRFTISRDNAKNTVYLQMNSLKPEDTAVDYCDTRDWVGSVRMGYWGQGTQVTVSS: high polyreactivity
- QVQLVESGGGLVQAGGSLRLSCAASGSTFTRYAMGWYRPAPGKERELVAAISLSGGDTYYADSVKGRFTISRDNAKNTVYLQMNSLKPEDTAVYYCAARWGYRGYSYEYWGQGTQVTVSS: high polyreactivity
- QVQLVESGGGIVQAGGSLRLSCAAAGFTFWQYAMGWYRQAPGKERELVAAITWDGGSTYYADSVKGRFTISRDYAKNTVYLQMNSLKPEDTAVYYCAKLFGGTYYEYDYWGQGTQVTVSS: low polyreactivity
- QVQLVESGGGLVQAGGSLRLSCAASGTTFRIYSMGWYRQAPGKERELVAGITRRGGSTFYADSVKGRFTISRDTAKNTVYFQMNSLKPEDTAVYYCAARFRGGMDYWGQGTQVTVSS: high polyreactivity

[in] Return reported polyreactivity (PSR sort gate); argument: QVQLVESGGGLVQAGGSLRLSCAASGLILGRYAMGWYRQAPGKERELVAAITRGGRTYYADSVKGRFTISRDNAKNTVYLQMNSLKPEDPAVYYCAATFGYTRNDYDYWGHGTQVTVSS
[out] high polyreactivity

[in] Return reported polyreactivity (PSR sort gate); argument: QVQLVESGGGLVQAGGSHRLSCAASGLIFYYYAMGWYRQAPGKERELVAAITWTAGSTSYADSVKGRFTISRDNAKNTVYLQMNSLKPEDTAVYYCAADYRHDTFSNEYDYWGQGTQVTVSS
[out] low polyreactivity

[in] Return reported polyreactivity (PSR sort gate); argument: QVQLVESGGGLVQAGGSLRLSCAASGLTFWRYTMGWYRQAPGKERELVAVITYRGGSTYYADSVKGRFTISRDNAKNTVYLQMNSLKPEDTAVYYCAAGRRTYGLTYDYWGQGTQVTVSS
[out] high polyreactivity

[in] Return reported polyreactivity (PSR sort gate); argument: QVQLVESGGGLVQAGVSLRLSCAASGSTFDTYAMGWYRQAPGKERELVAAISGSGVRTYYADSVKGRFTISRDNAKYTVYLQMNSLKPEDTAVYYCATTGYARRFDYWGQGSQVTVSS
[out] high polyreactivity

[in] Return reported polyreactivity (PSR sort gate); argument: QVQLVESGGGVVQAGGSLRLSCAASGRIFVYYMGWYRQAPGKERVLVAAISVGGGSTYYADSVKGRFTISRDHAKNTVYLQMNSLKPEDTAVYYCAAAWSNYFGDPSYYWGQGTQVTVSS
[out] low polyreactivity

[in] Return reported polyreactivity (PSR sort gate); argument: QVQLVESGGGLVQAGGSLRLSCAASGYTFYRYAMGWYRQAPGKERELVASITRSGGSTYYADSVKGRFTISRDNAKNTVYLQMNSLKPEDTAVYYCAAEYEFGHSSTPMDYWGQGTQVTVSS
[out] high polyreactivity

[in] Return reported polyreactivity (PSR sort gate); argument: QVQLVESGGGLVQAGGSLRLSCAASGRIFGSNTLGWYRQAPGKEREMVAAISRRGGSTYYADSVKGRFTISRDNAKNTVYLQINSLKPEDTAVYYCAAVGTGSSLRYDYWGQGTQVTVSS
[out] high polyreactivity
